Reported solubility values for the following compounds.
assay: Assessment of solubility: HT solubility in pION buffer, UV spectrophotometry; settings: pION system solution buffer, pH 4.5, pH 4.5, aqueous buffer, kinetic from dmso stock, Solubility (pH 4.5), pH 4.5 buffer, 16-19 h incubation, 1.0% DMSO

Compound	solubility
Cc1cc(CN2CCOCC2)ccc1COc1ccc(C#N)cc1-c1csc(N2C3CCC2CC(C(=O)O)C3)n1 (stereo not drawn) [Compound 87]	> 63 µg/mL
Cc1ccc(OCc2ccc(CN3CCOCC3)cc2C)c(-c2csc(N[C@H]3CC[C@@H](C(=O)O)C3)n2)c1 [Compound 181]	> 52 µg/mL
Cc1ccc(OCc2ccc(C(=O)N3CCOCC3)cc2C)c(-c2csc(N3CC[C@@]4(C(=O)O)C[C@H]4C3)n2)c1 [Compound 224]	< 0.1 µg/mL

---

test: Assessment of solubility: HT solubility in pION buffer, UV spectrophotometry; settings: pION system solution buffer, pH 7.4, pH 7.4, aqueous buffer, kinetic from dmso stock, Solubility (pH 7.4), pH 7.4 buffer, 16-19 h incubation, 1.0% DMSO
Reported solubility values for the following compounds.

Compound	solubility
Cc1cc(C(=O)N2CCCCC2)ccc1COc1ccc(C#N)cc1-c1csc(N2CCC(C(=O)O)CC2C)n1 (stereo not drawn)	> 55 µg/mL
Cc1cc(C(=O)N2CCCCC2)ccc1COc1ccc(F)cc1-c1csc(N2CC3CCC(C2)C3C(=O)O)n1 (stereo not drawn)	> 56 µg/mL
Cc1cc(CN2CCS(=O)(=O)CC2)ccc1COc1c(C)cccc1-c1csc(N2C3CCC2CC(C(=O)O)C3)n1 (stereo not drawn)	> 59 µg/mL
Cc1cc(CN2CCS(=O)(=O)CC2)ccc1COc1ccc(F)cc1-c1csc(N2CCC(C(=O)O)C(C)C2)n1 (stereo not drawn)	> 58 µg/mL
Cc1cc(CN2CCS(=O)(=O)CC2)ccc1COc1ccc(Cl)cc1-c1csc(N2CCC(C(=O)O)C(C(F)(F)F)C2)n1 (stereo not drawn)	> 65 µg/mL
Cc1cc(CN2CCOCC2)ccc1COc1ccc(C#N)cc1-c1csc(N2CCC(C(=O)O)C(C)C2)n1 (stereo not drawn)	> 54 µg/mL
Cc1cc(C(=O)N2CCCCC2)ccc1COc1ccc(F)cc1-c1csc(N2CCC(C(=O)O)C(C)C2)n1 (stereo not drawn)	> 100 µg/mL
Cc1ccc(OCc2ccc(CN3CCOCC3)cc2C)c(-c2csc(N3CCC(C(=O)O)CC3)n2)c1	36 µg/mL
Cc1ccc(OCc2ccc(C(=O)N3CCCC3)cc2C)c(-c2csc(N3CCC(C(=O)O)CC3)n2)c1	42 µg/mL
Cc1ccc(OCc2ccc(CN3CCS(=O)(=O)CC3)cc2C#N)c(-c2csc(N3CCC(C(=O)O)CC3)n2)c1	> 69 µg/mL
Cc1cc(CN2CCOCC2)ccc1COc1ccc(C#N)cc1-c1csc(N2CC3CCC(C2)C3C(=O)O)n1 (stereo not drawn)	5.7 µg/mL
Cc1cc(CN2CCS(=O)(=O)CC2)ccc1COc1ccccc1-c1csc(N2CCC(C(=O)O)CC2C)n1 (stereo not drawn)	> 56 µg/mL
Cc1cc(CN2CCS(=O)(=O)CC2)ccc1COc1ccccc1-c1csc(N2CCC(C(=O)O)C(C(F)(F)F)C2)n1 (stereo not drawn)	> 62 µg/mL
Cc1cc(CN2CCOCC2)ccc1COc1ccccc1-c1csc(N2CCC(C(=O)O)CC2)n1	> 55 µg/mL
Cc1cc(CN2CCS(=O)(=O)CC2)ccc1COc1ccccc1-c1csc(N2CC3CCC(C2)C3C(=O)O)n1 (stereo not drawn)	> 58 µg/mL
